Reference source: patent US20230301968A1

Experiment: in vitro
Conditions: human, hepatocytes, intrinsic clearance
measuredProperty: hepatocyte CLint at 1 µM
Kindly write the number and append the unit.

Item: O=c1ccc2ccc(O)cc2o1 [Umbelliferone, umbelliferone] | hepatocyte CLint at 1 µM: 129 µL/min/1e6 cells

* * *

Tested on: CYP1A2
Assay: Stability in human cryopreserved hepatocytes with or without CYP1A2 inhibitors (assays 1 to 3)
Conditions: human, hepatocytes, t½, assay 3, mexiletine 10 µM
measuredProperty: half-life at 1 µM (h)
I only need the number, in h, no unit after it.

Item: COC(=O)Nc1nc2cc(C(=O)c3ccc(F)cc3)ccc2[nH]1 [Flubendazole] | half-life at 1 µM: 26.8
